The values you see were collected from patent US11142515B2.

TARGET: p38 MAPKα isoform (MAPK14) (Homo sapiens, UniProt Q16539)
Construct: purchased Life Technologies
Sequence (Q16539 whole entry, canonical isoform): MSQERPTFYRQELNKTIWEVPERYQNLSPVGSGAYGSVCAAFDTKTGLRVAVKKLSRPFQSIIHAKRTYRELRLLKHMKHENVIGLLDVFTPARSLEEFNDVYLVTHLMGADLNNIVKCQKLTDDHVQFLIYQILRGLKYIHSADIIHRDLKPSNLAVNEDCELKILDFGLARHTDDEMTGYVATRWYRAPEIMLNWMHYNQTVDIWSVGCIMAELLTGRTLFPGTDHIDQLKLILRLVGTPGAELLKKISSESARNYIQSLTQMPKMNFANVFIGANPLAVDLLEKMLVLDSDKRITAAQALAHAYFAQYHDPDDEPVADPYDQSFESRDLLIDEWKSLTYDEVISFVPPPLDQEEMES
EXPERIMENTAL PROTOCOL: p38 MAPKα enzyme inhibition (Z-LYTE FRET)
Type: biochemical
ASSAY SETUP: Table 2A; read-out: IC50 Values for Enzyme Inhibition p38 MAPKα
QUANTITY MEASURED: IC50 (nM)

Worked cases, answers included:
Cc1cc(-n2nc(C(C)(C)C)cc2NC(=O)Nc2ccc(OCc3ccnc(Nc4cnccn4)c3)c3ccccc23)cs1 (single isomer, unassigned) [Example 31]    4
CNC(=O)Cc1cnc(Nc2cc(COc3ccc(NC(=O)Nc4cc(C(C)(C)C)nn4-c4ccc(C)cc4)c4ccccc34)ccn2)cn1 [Example 33]    3

a = Cc1ccc(-n2nc(C(C)(C)C)cc2NC(=O)Nc2ccc(OCc3ccnc(Nc4cnc(CC(=O)N(C)C)cn4)c3)c3ccccc23)cc1 [Example 29]
b = Cc1ccc(-n2nc(C(C)(C)C)cc2NC(=O)Nc2ccc(OCc3ccnc(Nc4cncc(CC(N)=O)n4)c3)c3ccccc23)cc1 [Example 32]
c = CCc1ccc(-n2nc(C(C)(C)C)cc2NC(=O)Nc2ccc(OCc3ccnc(Nc4cnccn4)c3)c3ccccc23)cc1 [Example 42]
d = Cc1ccc(-n2nc(C(C)(C)C)cc2NC(=O)Nc2ccc(OCc3ccnc(Nc4cnc(C5CC5)cn4)c3)c3ccccc23)cc1 [Example 16]
Asked: Falling order of IC50, please. Present the labels in the sequence the task asks for.
Given back: d, c, a, b

###

TARGET: p38 MAPKα isoform (MAPK14) (Homo sapiens)
Construct: purchased Life Technologies
EXPERIMENTAL PROTOCOL: p38 MAPKα enzyme inhibition (Z-LYTE FRET)
Type: biochemical
ASSAY SETUP: Table 2B, unit inferred; read-out: p38 MAPKα (Enzyme Profile)
pIC50: −log10 of the molar value.
QUANTITY MEASURED: pIC50

Cc1ccc(-n2nc(C(C)(C)C)cc2NC(=O)Nc2ccc(OCc3ccnc(Nc4cnc(C)c(C5CC5)n4)c3)c3ccccc23)cc1 [Example 150]    7.60
Cc1ccc(-n2nc(C(C)(C)C)cc2NC(=O)Nc2ccc(OCc3ccnc(Nc4cnc(C(=O)N5CCC(F)CC5)cn4)c3)c3ccccc23)cc1 [Example 176]    7.44
Cc1ccc(-n2nc(C(C)(C)C)cc2NC(=O)Nc2ccc(OCc3ccnc(Nc4cncc(OCCO)n4)c3)c3ccccc23)cc1 [Example 121]    7.42

P = CCc1cncc(Nc2cc(COc3ccc(NC(=O)Nc4cc(C(C)(C)C)nn4-c4ccc(OC)c(C)c4)c4ccccc34)ccn2)n1 [Example 140]
Q = Cc1cccc(-n2nc(C(C)(C)C)cc2NC(=O)Nc2ccc(OCc3ccnc(Nc4cnc(C(=O)N5CC[C@@H](O)C5)cn4)c3)c3ccccc23)c1 [Example 69]
R = COc1ccc(-n2nc(C(C)(C)C)cc2NC(=O)Nc2ccc(OCc3ccnc(Nc4cncc(OC)n4)c3)c3ccccc23)cc1 [Example 108]
Asked: Order each entry by recorded pIC50, climbing from the minimum. Present the labels in the sequence the task asks for.
Given back: P, R, Q

###

TARGET: p38 MAPKα isoform (MAPK14) (Homo sapiens, UniProt Q16539)
Construct: purchased Life Technologies
EXPERIMENTAL PROTOCOL: p38 MAPKα enzyme inhibition (Z-LYTE FRET)
Type: biochemical
ASSAY SETUP: Table 2B, unit inferred; read-out: p38 MAPKα (Enzyme Profile)
QUANTITY MEASURED: IC50 (nM)

CO[C@@H]1CCCN(C(=O)c2cnc(Nc3cc(COc4ccc(NC(=O)Nc5cc(C(C)(C)C)nn5-c5ccc(C)cc5)c5ccccc45)ccn3)cn2)C1    14

I = Cc1ccc(-n2nc(C(C)(C)C)cc2NC(=O)Nc2ccc(OCc3ccnc(Nc4cnc5c(n4)CCCC5)c3)c3ccccc23)cc1
II = CC(C)c1cccc(-n2nc(C(C)(C)C)cc2NC(=O)Nc2ccc(OCc3ccnc(Nc4cnccn4)c3)c3ccccc23)c1
Asked: Pick one, I or II : lowest reported IC50. Give the label of your selection.
Given back: II
(II: 14 nM, I: 29 nM)
